Target: SMARCA4 (Homo sapiens, UniProt P51532)
Sequence (P51532 whole entry): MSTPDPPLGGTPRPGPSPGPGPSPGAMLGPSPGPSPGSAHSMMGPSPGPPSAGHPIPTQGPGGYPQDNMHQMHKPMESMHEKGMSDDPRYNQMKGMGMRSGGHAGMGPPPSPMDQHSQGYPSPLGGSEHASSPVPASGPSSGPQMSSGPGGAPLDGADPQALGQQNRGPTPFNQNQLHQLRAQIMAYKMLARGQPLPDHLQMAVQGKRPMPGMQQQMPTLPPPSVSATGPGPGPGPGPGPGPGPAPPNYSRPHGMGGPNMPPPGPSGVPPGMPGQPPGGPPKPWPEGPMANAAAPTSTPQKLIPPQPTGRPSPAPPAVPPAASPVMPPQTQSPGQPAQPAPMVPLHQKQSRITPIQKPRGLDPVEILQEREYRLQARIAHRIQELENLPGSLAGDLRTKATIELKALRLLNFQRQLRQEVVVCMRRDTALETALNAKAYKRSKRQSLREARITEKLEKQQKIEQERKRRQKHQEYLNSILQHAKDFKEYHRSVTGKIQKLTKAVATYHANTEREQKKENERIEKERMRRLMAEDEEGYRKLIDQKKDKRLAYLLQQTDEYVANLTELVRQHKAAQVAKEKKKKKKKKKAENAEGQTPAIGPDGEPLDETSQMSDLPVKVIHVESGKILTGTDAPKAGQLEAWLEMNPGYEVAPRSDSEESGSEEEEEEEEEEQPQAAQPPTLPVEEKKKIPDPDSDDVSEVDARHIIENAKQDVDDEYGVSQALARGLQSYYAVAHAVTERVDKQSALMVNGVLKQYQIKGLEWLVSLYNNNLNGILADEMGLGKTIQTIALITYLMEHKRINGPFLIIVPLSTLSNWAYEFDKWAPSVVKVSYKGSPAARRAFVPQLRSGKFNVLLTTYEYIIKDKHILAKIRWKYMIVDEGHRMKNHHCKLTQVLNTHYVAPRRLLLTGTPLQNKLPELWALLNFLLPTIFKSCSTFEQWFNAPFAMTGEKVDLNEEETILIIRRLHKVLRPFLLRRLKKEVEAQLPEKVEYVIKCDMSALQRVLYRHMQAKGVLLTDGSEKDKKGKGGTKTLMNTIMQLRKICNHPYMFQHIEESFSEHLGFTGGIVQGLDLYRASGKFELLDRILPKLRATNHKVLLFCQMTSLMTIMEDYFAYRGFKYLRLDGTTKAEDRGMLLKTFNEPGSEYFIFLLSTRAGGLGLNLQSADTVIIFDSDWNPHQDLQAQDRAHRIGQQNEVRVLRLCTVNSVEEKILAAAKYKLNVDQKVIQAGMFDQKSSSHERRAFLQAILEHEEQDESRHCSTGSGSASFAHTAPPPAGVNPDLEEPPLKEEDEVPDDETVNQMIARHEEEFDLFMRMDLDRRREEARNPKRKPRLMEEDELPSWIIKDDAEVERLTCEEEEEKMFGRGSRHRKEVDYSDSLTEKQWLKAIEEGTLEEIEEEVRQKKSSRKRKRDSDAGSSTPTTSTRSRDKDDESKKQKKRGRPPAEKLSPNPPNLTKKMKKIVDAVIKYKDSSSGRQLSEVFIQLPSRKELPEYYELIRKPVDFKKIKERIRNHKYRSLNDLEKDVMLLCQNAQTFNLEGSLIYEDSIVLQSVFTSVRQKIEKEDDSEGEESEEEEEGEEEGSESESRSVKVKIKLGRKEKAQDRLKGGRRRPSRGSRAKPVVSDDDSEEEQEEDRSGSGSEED
Test: HiBiT assay for protein degradation, Hela SMARCA4-HiBiT cells (A series)
Format: cell-based
Design: fuse HiBiT to the carboxy terminus of SMARCA2 (Promega CS302365) or SMARCA4 (Promega CS3023225); host or cells: HeLa (CRISPR/Cas9 HiBiT knock-in)
Settings: Hela SMARCA4-HiBiT cells, 24 hours treatment; read-out: SMARC A4 Hela HiBit Dmax
Would you mind telling me the reported Dmax of each entry?

State the recorded Dmax for this entry: Cc1ncsc1-c1ccc([C@H](C)NC(=O)[C@@H]2C[C@@H](O)CN2C(=O)[C@H](C2CCN(C3CCOCC3)CC2)n2cc([C@H]3CC[C@H](CN4CCC(c5ccc6c(c5)-n5c(nc(=O)c7c(Cl)cccc75)C65CCCCC5)CC4)CC3)nn2)cc1
50 to 69%

State the recorded Dmax for this entry: Cc1ncsc1-c1ccc([C@H](C)NC(=O)[C@@H]2C[C@@H](O)CN2C(=O)[C@H](C2CCN(C(=O)[C@H]3CC[C@H](CN4CCC(c5ccc6c(c5)-n5c(nc(=O)c7c(Cl)cccc75)C65CCCCC5)CC4)CC3)CC2)n2cc(C3CC3)nn2)cc1
< 50%

###

Molecular target: SMARCA4 (Homo sapiens, UniProt P51532)
Assay: HiBit assay in engineered HT1080 CRISPR knock-in cell, 6 hrs (B series), SMARCA4
Type: cell-based
Details: HT-1080, HT1080 CRISPR knock-in cells, 6 hrs incubation; read-out: SMARC A4 HT1080 HiBit Dmax(%)
ASSAY_READOUT: Dmax

For the record Cc1ncsc1-c1ccc(C(CN2CCOCC2)NC(=O)[C@@H]2C[C@@H](O)CN2C(=O)[C@@H](c2cc(O[C@H]3CC[C@H](CN4CCN(c5ccc6c(c5)-n5c(nc(=O)c7c(Cl)cccc75)C6(C)C)CC4)CC3)no2)C(C)C)cc1 (some centres unmarked) , what value of Dmax is listed for SMARCA4 (Homo sapiens, UniProt P51532)?
> 90%

For the record Cc1ncsc1-c1ccc([C@H](C)NC(=O)[C@@H]2C[C@@H](O)CN2C(=O)[C@@H](NC(=O)CN2CCC(c3ccc4c(c3)C(C)(C)c3nc(=O)c5c(Br)cccc5n3-4)CC2)C(C)(C)C)cc1 , what value of Dmax is listed for SMARCA4 (Homo sapiens, UniProt P51532)?
> 90%

###

Target: UniProt:P51532
Test: HiBit assay in engineered HT1080 CRISPR knock-in cell, 6 hrs (B series), SMARCA4
Assay type: cell-based
Conditions: HT-1080, HT1080 CRISPR knock-in cells, 6 hrs incubation; read-out: SMARC A4 HT1080 HiBit Dmax(%)
ASSAY_READOUT: Dmax

State the recorded Dmax for this entry: Cc1ncsc1-c1ccc([C@H](C)NC(=O)[C@@H]2C[C@@H](O)CN2C(=O)[C@@H](NC(=O)[C@H]2CC[C@H](Cn3cc(-c4ccc5c(c4)C(C)(C)c4nc(=O)c6c(Cl)cccc6n4-5)cn3)CC2)C(C)(C)C)cc1 [Compound B48]
< 50%

State the recorded Dmax for this entry: Cc1cc(C(C(=O)N2C[C@H](O)C[C@H]2C(=O)N[C@@H](C)c2ccc(-c3scnc3C#CCOCCCN3CCC(c4cccc5c4C(C)(C)c4nc(=O)c6c(Cl)cccc6n4-5)CC3)cc2)C(C)C)on1 (some centres unmarked) [Compound B145]
50 to 69%

###

Target: UniProt:P51532
Experiment: HiBit assay in engineered HT1080 CRISPR knock-in cell, 6 hrs (B series), SMARCA4
Format: cell-based
Conditions: HT-1080, HT1080 CRISPR knock-in cells, 6 hrs incubation; read-out: SMARC A4 HT1080 HiBit Dmax(%)
Procedure: The HiBit assay was performed using engineered HT1080 CRISPR knock-in cell utilizing the Nano-Glo HiBiT Lytic Detection System from Promega, Cat #N3040. Compounds were transferred, 25 nL DMSO or test compounds (final DMSO @ 0.1%) to intermediate plates (Corning3570) using ECHO550. […] After briefly centrifugation (2000 rpm 1 mins), plate was read on Envision (Ultrasensitive luminescence model).
ASSAY_READOUT: Dmax

State the recorded Dmax for this entry: CC(C)[C@@H](C(=O)N1C[C@H](O)C[C@H]1C(=O)N[C@@H](C)c1ccc(-c2scnc2C#CCN2CCOCC2)cc1)n1cc([C@H]2CC[C@H](CN3CCN(c4ccc5c(c4)-n4c(nc(=O)c6c(Cl)cccc64)C5(C)C)CC3)CC2)nn1 [Compound B136]
70 to 90%

State the recorded Dmax for this entry: Cc1ncsc1-c1ccc([C@H](C)NC(=O)[C@@H]2C[C@@H](O)CN2C(=O)[C@@H](NC(=O)CCCn2cc(-c3ccc4c(c3)C(C)(C)c3nc(=O)c5c(Cl)cccc5n3-4)cn2)C(C)(C)C)cc1 [Compound B93]
< 50%

State the recorded Dmax for this entry: Cc1ncsc1-c1ccc([C@H](C)NC(=O)[C@@H]2C[C@@H](O)CN2C(=O)[C@@H](NC(=O)C2CCC(CN3CCC(c4ccc5c(c4)C(C)(C(F)(F)F)c4nc(=O)c6c(Cl)cccc6n4-5)CC3)CC2)C(C)(C)C)cc1 (stereo partly shown) [Compound B76]
< 50%

State the recorded Dmax for this entry: Cc1ncsc1-c1ccc([C@H](CC(=O)NCCCN2CCC(c3ccc4c(c3)-n3c(nc(=O)c5c(Cl)cccc53)C4(C)C)CC2)NC(=O)[C@@H]2C[C@@H](O)CN2C(=O)[C@@H](NC(=O)C2(F)CC2)C(C)(C)C)cc1 [Compound B25]
< 50%

###

Molecular target: SMARCA4 (Homo sapiens)
Experiment: HiBit assay in engineered HT1080 CRISPR knock-in cell, 6 hrs (B series), SMARCA4
Format: cell-based
Settings: HT-1080, HT1080 CRISPR knock-in cells, 6 hrs incubation; read-out: SMARC A4 HT1080 HiBit Dmax(%)
ASSAY_READOUT: Dmax

State the recorded Dmax for this entry: Cc1ncsc1-c1ccc([C@H](C)NC(=O)[C@@H]2C[C@@H](O)CN2C(=O)[C@@H](NC(=O)C2CCC(N3CCC(c4ccc5c(c4)-n4c(nc(=O)c6c(Cl)cccc64)C5(C)C)CC3)CC2)C(C)(C)C)cc1 (stereo partly drawn)
< 50%

State the recorded Dmax for this entry: Cc1cc(C(C(=O)N2C[C@H](O)C[C@H]2C(=O)N[C@@H](CCCCCN2CCC(c3ccc4c(c3)-n3c(nc(=O)c5c(Cl)cccc53)C4(C)C)CC2)c2ccc(-c3scnc3C)cc2)C(C)C)on1 (stereo partly drawn)
> 90%

State the recorded Dmax for this entry: Cc1ncsc1-c1ccc([C@H](C)NC(=O)[C@@H]2C[C@@H](O)CN2C(=O)[C@@H](c2cc(OCCN3CCC(c4ccc5c(c4)C(C)(C)c4nc(=O)c6c(Cl)cccc6n4-5)CC3)no2)C(C)C)cc1
70 to 90%

State the recorded Dmax for this entry: Cc1ncsc1-c1ccc([C@H](C)NC(=O)[C@@H]2C[C@@H](O)CN2C(=O)[C@@H](NC(=O)C23CCC(CN4CCC(c5ccc6c(c5)C(C)(C)c5nc(=O)c7c(Cl)cccc7n5-6)CC4)(CC2)C3)C(C)(C)C)cc1
70 to 90%

State the recorded Dmax for this entry: Cc1ncsc1-c1ccc([C@H](C)NC(=O)[C@@H]2C[C@@H](O)CN2C(=O)[C@@H](c2cc(OCCCCn3cc(-c4ccc5c(c4)-n4c(nc(=O)c6c(Cl)cccc64)C5(C)C)cn3)no2)C(C)C)cc1
< 50%

State the recorded Dmax for this entry: Cc1ncsc1-c1ccc([C@H](C)NC(=O)[C@@H]2C[C@@H](O)CN2C(=O)[C@@H](NC(=O)CCn2cc(-c3ccc4c(c3)C(C)(C)c3nc(=O)c5c(Cl)cccc5n3-4)cn2)C(C)(C)C)cc1
< 50%

State the recorded Dmax for this entry: Cc1ncsc1-c1ccc([C@H](C)NC(=O)[C@@H]2C[C@@H](O)CN2C(=O)[C@@H](NC(=O)C23CCC(CN4CCC(c5ccc6c(c5)-n5c(nc(=O)c7c(Cl)cccc75)C6(C)C)CC4)(CC2)C3)C(C)(C)C)cc1
50 to 69%

State the recorded Dmax for this entry: Cc1ncsc1-c1ccc(C(CN2CCOCC2)NC(=O)[C@@H]2C[C@@H](O)CN2C(=O)[C@H](c2cc(N3CCC(CN4CCN(c5ccc6c(c5)-n5c(nc(=O)c7c(Cl)cccc75)C65CCCCC5)CC4)CC3)no2)C(C)C)cc1 (stereo in doubt)
50 to 69%

State the recorded Dmax for this entry: Cc1ncsc1-c1ccc2c(c1)CC[C@@H]2NC(=O)[C@@H]1C[C@@H](O)CN1C(=O)[C@@H](n1cc([C@H]2CC[C@H](CN3CCC(c4ccc5c(c4)-n4c(nc(=O)c6c(Cl)cccc64)C5(C)C)CC3)CC2)nn1)C(C)(C)C
< 50%
